- Measurement Setup: in methanol, 293.15 K
Property: solubility (mole fraction)
Numbers only.

IN: May I ask what solubility (mole fraction) has been recorded for OC[C@@H](O)[C@@H](O)[C@H](O)[C@@H](O)CO ?
OUT: 0.00461

###

- Measurement Setup: in ethyl acetate, 293.15 K
Property: solubility (mole fraction)
Give bare numbers.

IN: May I ask what solubility (mole fraction) has been recorded for OC[C@@H](O)[C@@H](O)[C@H](O)[C@@H](O)CO ?
OUT: 0.000317

###

- Measurement Setup: in acetonitrile, 283.15 K
Property: solubility (mole fraction)
One number for each entry.

IN: May I ask what solubility (mole fraction) has been recorded for OC[C@@H](O)[C@@H](O)[C@H](O)[C@@H](O)CO ?
OUT: 0.000129

Data provenance is BigSolDB 2.1.
